These data points were gathered from the RNAGym collection of RNA variant scans (doi:10.1073/pnas.2313332121).

B1: TPR 5TU (parent)
chain: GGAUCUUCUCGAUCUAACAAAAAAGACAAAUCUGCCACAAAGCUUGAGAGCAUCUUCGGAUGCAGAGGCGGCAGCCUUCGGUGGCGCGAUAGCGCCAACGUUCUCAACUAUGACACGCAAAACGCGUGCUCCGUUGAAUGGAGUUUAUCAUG

variants of: B1; assay: polymerase ribozyme fitness, log enrichment relative to wild type (log ratio); higher = more active; in vitro selection for triplet polymerase activity
Variants at the floor of the assay were thinned out.
ENDPOINT_NAME: polymerase ribozyme fitness (log ratio)

# MUTATION_ANNOTATION, OP, READOUT_VALUE
data = [
    ("A16U C129A", "=", -3.81),
    ("U13A C27A C54A U56A G65C G92C A97G U101G G140U", "≤", -4.2),
    ("A21G G50C A52C C79U C118U", "≤", -4.2),
    ("C93U C114A", "=", -3.41),
    ("G46U G59C C85A A115U", "=", -4.01),
    ("U61G C95U", "=", -2.07),
    ("G34C A39C U55A A60U A73U U146G", "≤", -4.2),
    ("U15G A17U C79G G80A G81U G92A G124A A147U", "≤", -4.2),
    ("C10G A47U C54A C72U G81A G92C G133U U135G", "≤", -4.2),
    ("U45A C69A C95U C99G G112U C114U A147U", "≤", -4.2),
    ("A47G A52C A73G C76G C87G A98G", "≤", -4.2),
    ("A12C C85G", "=", -2.59),
    ("C10A C32A U56G G80C U82G C87U A98U", "≤", -4.2),
    ("G83C C132A", "=", -2.69),
    ("A52C G86A", "=", -1.2),
    ("C38U U45A G92C", "=", -4.13),
    ("A52C U55A C85G C116A", "=", -3.78),
    ("A3C G25A A40U G71A C85U C96U A119C A121G G140C", "≤", -4.2),
    ("C57A G59U U77A C99G", "≤", -4.2),
    ("C76A C79U C96A U139A", "≤", -4.2),
    ("U4C A22U A73U C96G A120G", "=", -2.21),
    ("A40G C95A U104G A142G", "=", -3.8),
    ("A26G U145A", "=", -3.59),
    ("U55A C87A", "≤", -4.2),
    ("C5U A19G U77A C95U", "≤", -4.2),
    ("A19U U56A A60G U104G G152A", "=", -2.82),
    ("A52C U55C G83A U151A G152A", "≤", -4.2),
    ("C57G G80A G84A", "=", -0.169),
    ("U9G U15G C27G U31A C38A A66C G67A C87U C99G G143C", "≤", -4.2),
    ("A24C A64C", "≤", -4.2),
    ("G92U G124U G141C", "=", -0.283),
    ("U6C A73U G84A G100U G124A C125G U145G", "≤", -4.2),
    ("C27A A49U C87A U134C G141A", "≤", -4.2),
    ("G11U C14U C72U G143A", "≤", -4.2),
    ("A19U G25U C35A G65U A91U A120G G140A A142U", "=", -4.19),
    ("U53A A147G", "=", -3.69),
    ("C54A U55G G58U G81C C85A", "=", -2.41),
    ("A19G A26C U55G G83U U151C", "≤", -4.2),
    ("A52C G58C A91U A121U", "≤", -4.2),
    ("U53A A106U", "=", -1.9),
    ("C85G", "=", -2.05),
    ("G86U G143A", "=", -2.53),
    ("G50A G94U C116G", "=", -1.85),
    ("C38G A60G C76G G81A G84U U102G C116U G128A", "≤", -4.2),
    ("C10A A28U G58A C96U A122G G124C", "≤", -4.2),
    ("C32G A52U C99U A106G G124U C131A", "≤", -4.2),
]
